- PROTOCOL_DESCRIPTION: yeast display, Sf9 membrane polyspecificity reagent, FACS + sequencing; frameworks hold sequencing errors
MEASURED_ATTRIBUTE: polyreactivity (PSR sort gate)

Previously resolved entries follow.
{"CHAIN_SEQUENCE": "QVQLVESGGGLVQAGGSLRLRCAASGFTFYLYAMGWYRQAPGKERELVAAITWSGGRTYYADSVKGRFTNSRDNAKNTVYLQMNSLKPEYTAVYYCAAVVRKQLSAPSDYWGQGTQVTVSS", "REPORTED": "high polyreactivity"}
{"CHAIN_SEQUENCE": "QVQLVESGGALVQAGGSLRLSCAASGSTFDANVMGWYRQAPGKERELVAAISRDTNTYYADSVKGRFTISRDNAKNTVYLQMNSLKPEDTAVYYYWGQGTQVTVSS", "REPORTED": "low polyreactivity"}
{"CHAIN_SEQUENCE": "QVQLVESGGGLVQAGGSLRLSCAASGSIFYNALGWYRQAPGKERELVASISWSGGTSTYYADSVKGLFTISRDNAKNTVYLQMNSMKPEDTAVYYCAKASRYSSYWMYYWGQGTQVTVSS", "REPORTED": "high polyreactivity"}
{"CHAIN_SEQUENCE": "QVQLVESGGGLVQAGGSLRLSCAASGRIFGPNAMGWYRPAPGKERELVAAISTRDGSTSYADSVKGRFTISRDNAKNTVYLQMNSLKPEDTAVYYCAKRWPYWYRVTQYDNVDYWGQGTQVTVSS", "REPORTED": "low polyreactivity"}
{"CHAIN_SEQUENCE": "QVQLVESGGGLVQAGGSLRLSCAASGSTFRYNAMGWYRQAPGKVRELVASITWSGGDTYYADSVKGRFTISRDNAKNTVYLQMNSLKPEDTAVYYCNKRVHYIAGRGYDYWGQGNQVTVSS", "REPORTED": "low polyreactivity"}
{"CHAIN_SEQUENCE": "QVQLVESAGGLVQAGGSLRLSCAASGSIFQGNARGWYRQAPGKERELVAAISQSGGRTYYADSVKGRFTISRDNAKNTVYLQMISLKPEDTAVYYCNTTKVYRLRFDYWGQGTQVTVSS", "REPORTED": "low polyreactivity"}
{"CHAIN_SEQUENCE": "QVQLVESGGGLVQAVRSLRLSCAASGFTFNGNAMGWYRQAPGKDRELVAAISYSGGSTYYADSVKGRFTISRDNAKNTVYLQMNSLKPEDTAVYYCAADRTAYSVRAYTKDHSGHDYWGQGTQVTVSS", "REPORTED": "low polyreactivity"}
{"CHAIN_SEQUENCE": "QVQLVESGGGLVQAGGSLRLSCAASGRIFGLNAMGWYRQAPGKERELVAAISERDGSTYYADSVKGRFTISRDNAKNTVYLQMNSLKPEDTAVYYCAAEKPVHYVRGVHYDYWGQGTQVTVSS", "REPORTED": "low polyreactivity"}

Report polyreactivity (PSR sort gate) for each item below.
1. QVQLVESGAGLVQAGGGLRLSCAASGFIFNLYAMGWYREAPGKERELVAAISSGGNTHYADSVKGRFTISRDNAKNTVYLQMNSLKPVDTAVYYCNADVNHVNKAWHVSFHQGYYWGQGTQVTVSS
2. QVQLVESGGGLVQAGGSLRLSFAASGNTFVSNAMGWYRQAPGKERELVAAISGRGGRTYYADSVKGRFTISRDIAKDTVYLQMNSLKPEDTAVYYCDADQYKDFDYWGQGTLVTVSS
3. QVQLVESGGGLVQAGGSLRLSCAASGITFRYYPMGWYRPAPGKQRELVAAISRTSGRTYYADSVKGRFTISRDNAKNTVYLQMNSLNPEDPAVYYCNKAWTPSLLYQSYYWGQGPQVTVSS

["low polyreactivity", "low polyreactivity", "high polyreactivity"]

* * *

- PROTOCOL_DESCRIPTION: yeast display, Sf9 membrane polyspecificity reagent, FACS + sequencing; frameworks hold sequencing errors
MEASURED_ATTRIBUTE: polyreactivity (PSR sort gate)

Previously resolved entries follow.
{"CHAIN_SEQUENCE": "QVQLVESGGGLVQAGGSLRLSCAASGSTFASYAMGWYRQAPGKERELVAAIRWRGGTTYYADSVKGRFTISRDNAKNTVNLQMNSLKPEDTAVYYCNADRYYLYYFWGQGTQVTVSS", "polyreactivity (PSR sort gate)": "low polyreactivity"}
{"CHAIN_SEQUENCE": "QVQLVESGAGLVQAGGSLRLSCAASGSTFCRYVAMGWYRQAPGKERELVAAISVSDGDTYYADSVKGRFTISRDNAKNTVYLQMNSLKPEDTAVYYCAAESFYGYDYWGQGTQVTVSS", "polyreactivity (PSR sort gate)": "high polyreactivity"}
{"CHAIN_SEQUENCE": "QVQLVESGGGLVQAGGSLRLSCAASGFIFAYYAMGWYRQAPGKERELVAAITSSGGSTYYADSVKGRFTISRDNAKHTVYLQMNSLKPEDTAVYYCNAVPRHYKGYYWGQGTQVTVSS", "polyreactivity (PSR sort gate)": "high polyreactivity"}
{"CHAIN_SEQUENCE": "QEQLQESGGCLVQAGGSLRLSCAASGSIFYVYGMGWFRQPPGKELELVAGINDGTNTNYADSVRGRFTISRDNAKNTVLLQMNSLKPEDTAVYYCAADGNCYQAHEYWGVGTQVTVSS", "polyreactivity (PSR sort gate)": "high polyreactivity"}

Consider the record given below.
So for QVQLVESGGGLVQAGGSLRLSCAASGSIFASYDMGWYRQAPGKERELVARITFNGGSTYYADSVKGRFTISRDNAKNTVYLQMNSLKPEETAVYYCNADYPWEYDYWGLGTQVTVSS , the logged polyreactivity (PSR sort gate) turned out to be low polyreactivity

* * *

- PROTOCOL_DESCRIPTION: yeast display, Sf9 membrane polyspecificity reagent, FACS + sequencing; frameworks hold sequencing errors
MEASURED_ATTRIBUTE: polyreactivity (PSR sort gate)

Previously resolved entries follow.
{"CHAIN_SEQUENCE": "QVHLVESGGGLVQSGGSLRLSCAATGNIFGRYAKGWYRQAPGKERELVAGISRGVSTSYADSVKGPFTISRDNAKNTVYLQMYSLKPDDTAVYYCTKRPWYLSDYWGQGTEVTVSS", "polyreactivity (PSR sort gate)": "low polyreactivity"}
{"CHAIN_SEQUENCE": "QVQLVESGGGLVQAGGSLRLSCAASGLIFENNAMGWYRQAPGKERELVAAITYSGGSTYYADSVKGRFTISRDNAKNTVYLQMNSLKPEDTAVYYCAAESYRRYGYDYWGQGTQVTVSS", "polyreactivity (PSR sort gate)": "high polyreactivity"}
{"CHAIN_SEQUENCE": "QVQLVESGGGLVQAGGSLRLSCAASGSIFAGYAMGWYRQAPGKERELVATITSGGSTNYADSVKGRFTISRDNAKNTVYLQMNSLKPEDTAVYYCAADVEDSIPSSYTGGEYDYWGQGTQGTVSS", "polyreactivity (PSR sort gate)": "low polyreactivity"}
{"CHAIN_SEQUENCE": "QVQLVESGGGLVQAGGSLRLSCAASGNIFYRYAMGWYRQAPGKERELVAAIRSGSSTNYADSVKGRFTISRDNAKNTVYLQMNSLKPEDTAVYYCAARSKYTHSRQSDYWGQGTQVTVSS", "polyreactivity (PSR sort gate)": "low polyreactivity"}

Consider the record given below.
So for QVQLVESGGGLVQAGGSLRLSCAASGRIFKRYAMGWYRQAPGKERELVAAISKSGGSTYYADSVKGRFTISRDNAKNTVYLQMNSLKPEDTAVYYCNADPVRSGLDYWGQGTQVTVSS , the logged polyreactivity (PSR sort gate) turned out to be high polyreactivity

* * *

- PROTOCOL_DESCRIPTION: yeast display, Sf9 membrane polyspecificity reagent, FACS + sequencing; frameworks hold sequencing errors

{"CHAIN_SEQUENCE": "QVQLVESGGGLVQAGGSLRLSCAASGSIFTTYAMGWYRQAPGKERELVAAISSGGGTNYADSVKGRFTISRDNAKNTVYLQMNSLKPEDTAVYYCNKRYYRLQLHNAYGATPRRNYWGQGTQVTVSS", "polyreactivity (PSR sort gate)": "low polyreactivity"}
{"CHAIN_SEQUENCE": "QVQLVESGGGLVQAGGSLRLSCAASGFTFRFYGMGWYRQAPGKERELVAAISSRGTTTYYADSVKGRFTISRDNAKNTVYLQMNSLKPEDTAVYYCNKEYTTYGYDLEYDYWGLGTQVTVSS", "polyreactivity (PSR sort gate)": "low polyreactivity"}

* * *

- PROTOCOL_DESCRIPTION: yeast display, Sf9 membrane polyspecificity reagent, FACS + sequencing; frameworks hold sequencing errors
MEASURED_ATTRIBUTE: polyreactivity (PSR sort gate)

Previously resolved entries follow.
{"CHAIN_SEQUENCE": "QVQLVESRGGLVQAGGSLRLSCAASGSTFRRYAMGWYRQAPGKERELVAAITTRGGSTYYADSVKGRFTISRDNAKNTVYLQMNSLKPEDTAVYYCARDYSTYLRTAGDYWGQGTQVTVSS", "REPORTED": "low polyreactivity"}
{"CHAIN_SEQUENCE": "QVQLVESGGGLVQAGGSLRLSCAASGRISVVNAMGWYRQAPGKERELVATINRGGSTYADSVKGRFTISRDNAKNTVYLQMNSLKPEDTAVYYCAATSFSVRFTRYYYWGQGTQVTVSS", "REPORTED": "high polyreactivity"}
{"CHAIN_SEQUENCE": "QVQLVESGGGLVQAGGRLRLSCAASGSTFSRYAMGWYRQAPGKERELVAAISWSGGITYYADSVKGRFTISRDNAKNTVYLQMNSLKPEDTAVYYCAARSRSWSGERGYWGQGTQVTVSS", "REPORTED": "high polyreactivity"}
{"CHAIN_SEQUENCE": "QVQLVESGGGLVQAGGSLRLSCAASGRIFYFYAMGWSRQAPGKERELVAAITGSAGGTYYADSVKGRFTISRDTAKNTVYLQMNSLKPEDTAVYYCAAKYYGNKRDLYYWGQGTQVTVSS", "REPORTED": "low polyreactivity"}
{"CHAIN_SEQUENCE": "QVQLVESGGGLVQAGGSLRLSCAASGRTFDGYTMGWYRQAPGKERELVAAISGGGGSTYYADSVKGRFTISRDNAKNTVYLQLNSLKPEDTAVYYCNKVVRQHGGLYNYWGQGTQVTVSS", "REPORTED": "low polyreactivity"}
{"CHAIN_SEQUENCE": "QVQLVESGGGLVQAGGSLRLSCAASGYTFYANAMGWYRQAPGTEREFVASITWSGGSTYYADSVKGRFTISRDNAKNTVYLQMNSLKPEDTAVYYCAAESWFKYDYWGQGTQVTVSS", "REPORTED": "low polyreactivity"}
{"CHAIN_SEQUENCE": "KVQLVESGGGLVQAGGSLRLSCAASGFTFYGNAMGWYRQAPGKERELVATIRYRGGRTYYADSVKGRFTISRDNAKNTVYLQMNSLKPEDTAVYYCAARSVFLMWGQGTQVTVSS", "REPORTED": "high polyreactivity"}
{"CHAIN_SEQUENCE": "QVQLVESRAGLVQAGGSLRLSCAASGNIFDIYAMGWYRQAPGKERELVAAISSGGSTYYADSVKGRFTISRDNAKNTVYLQLNSLKPEDTAVYYCAESRVGYYRYEYWGQGNQVTVSS", "REPORTED": "low polyreactivity"}

Report polyreactivity (PSR sort gate) for each item below.
1. HVELVDSGGGLVQAGGSLRLSCAASGSIFTDNTRGWFRQAPAKDRELVASISSGGRTYYADSVKGRFTISRDNAKNTVYLQMNSLKPEDTAVSYCAVSCWWKHNYWGQGTQVTVSS
2. QVQLVESGGGLVQAGGSLRLRCAASGRIFRGYAMGWYRQAPGKERELVAAISWSGGSSTYADSVKGRFTISLDNAKNTVYLQMNSLKPEDTAVYDCNRVSRGRGRLTVDYQAEGYDSWGQGTQVTVSS
3. QVQLVESGGGLDQAGGSLRLSCAASGRIFQYYAMGWYRQAPGKERELVAAITSGGRTTYADSVKGRFTISRDNAKNNVYLQMNSLKPEDTAVYYCNAKTWYSYNYWGQGTQVTVSS

high polyreactivity
high polyreactivity
high polyreactivity

Every entry's value here was drawn from the nanobody polyreactivity screen of Harvey et al. (2022).
